Value source: PubChem BioAssay (NCATS)

A collection of compounds and their measured max response
Assay: qHTS Assay for Lipid Storage Modulators (AID 1519)
Conditions: Drosophila S3 cells, BODIPY lipid droplet/cell ratio, laser cytometry; measured here: cell count channel max response; cells loaded with oleic acid
Records with an inconclusive call do not appear.
MEASURE NAME: max response

COCCn1c(=O)c(-c2ccccc2)nc2cnc(N3CCN(C)CC3)nc21 = 11.4%
COc1ccccc1-c1cncnc1N1CCN(C)CC1 = 28%
CC(C)CN1CCCC2(CCN(C(=O)c3csnn3)CC2)C1 = 15.1%
C=C[C@](C)(O)CCC1C(=C)CC(OC(C)=O)C2C(C)(C)CCCC12C (some centres undefined) = 1.16%
CC(C)CN1CCC2(CC1)CCN(C(=O)c1cnccn1)CC2 = -8.95%
C[C@H](NCCc1ccc(O)cc1)[C@@H](O)c1ccc(O)cc1 = -0.183%
C[C@@](N)(Cc1ccc(O)cc1)C(=O)O = 15.7%
Cc1noc(C)c1C(=O)N1CCC2(CC1)CCN(c1ncccn1)CC2 = 6.46%
CO/N=C(\C(=O)N[C@@H]1C(=O)N2C(C(=O)O)=C(COC(C)=O)CS[C@@H]12)c1csc(N)n1 = -14.1%
Cc1ccccc1[C@@H](OCCN(C)C)c1ccccc1 = 0.329%
COc1ccccc1CN1CC2(CCN(C(=O)c3cccc(F)c3)CC2)C1 = 8.06%
COc1cccc(-c2ccc3ncnc(NCCN4CCOCC4)c3c2)c1 = -14.3%
COc1ccc(NC(=O)N2CCCC3(CCN(C(=O)c4cc(C(F)(F)F)cc(C(F)(F)F)c4)CC3)C2)cc1 = 9.63%
Cn1cccc1C(=O)N1CCC2(CCN(C(=O)Nc3ccccc3)CC2)CC1 = 0.66%

---

A collection of compounds and their measured activity change, negative = inhibition
Test: NFAT Signaling Pathway (AID 444);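 further: carbachol stimulus at about its EC50 of 1 µM final; on the % scale 0 is the no-effect control and ±100 the full control effect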
Settings: Jurkat NFAT-bla M1, carbachol, beta-lactamase ratio, 5 h; at 7.69 µM (top of the series) unless noted
Results filed as inconclusive are left out.
MEASURE NAME: activity change, negative = inhibition (%)

O=C(Nc1cccc(F)c1)N1CC2(CCN(C(=O)c3cnccn3)CC2)C1 = 20.8
COc1ccccc1CNc1ccnc(-c2ccc(N(C)C)cc2)n1 = -1.75
COCCn1c(=O)c(-c2cccs2)nc2cncnc21 = 11.8
N#Cc1ccc(CN2CCCC3(CCNCC3)C2)cc1 = -22.5
COc1ccc(-c2nc3cncnc3n(-c3ccccc3)c2=O)cc1 = -10.5
COc1ncc2nc(-c3cccs3)c(=O)n(Cc3cccs3)c2n1 = 5.36
COc1cccc(-c2ccc3ncnc(NCCNC(C)=O)c3c2)c1 = 21
COc1ccc(NC(=O)N2CCC3(CC2)CCN(C(=O)c2ccco2)CC3)cc1 = 3.53
COc1cccc(Cn2c(=O)c(-c3cccs3)nc3cncnc32)c1 = -4.4
O=c1c(-c2ccc(F)cc2)nc2cncnc2n1Cc1ccc(F)cc1 = -10
O=c1c(-c2ccccc2)nc2cncnc2n1-c1ccccc1 = 2.09
COc1ccc(-c2nc3cnc(OC)nc3n(Cc3ccc(F)cc3)c2=O)cc1 = -6.96
Cc1noc(C)c1C(=O)N1CCC2(CCN(Cc3nccs3)CC2)CC1 = -0.611
COCC(=O)N1CCC2(CC1)CCN(c1ccccc1)CC2 = 15.9
COCC(=O)N1CCC[C@@]2(CCN(Cc3cc(C(F)(F)F)cc(C(F)(F)F)c3)C2)C1 = 6.67
Cc1nc2cnc(Oc3ccccc3)nc2n(C2CC2)c1=O = -1.18
CS(=O)(=O)N1CCC2(CCCN(c3ncccn3)C2)CC1 = 2.98
c1ccc(-c2cccc(N3CCCC4(CCNCC4)C3)c2)cc1 = -11

---

Molecular target: Dual specificity protein kinase CLK4 (Homo sapiens) (UniProt Q9HAZ1)
Sequence (Q9HAZ1 whole entry, looked up): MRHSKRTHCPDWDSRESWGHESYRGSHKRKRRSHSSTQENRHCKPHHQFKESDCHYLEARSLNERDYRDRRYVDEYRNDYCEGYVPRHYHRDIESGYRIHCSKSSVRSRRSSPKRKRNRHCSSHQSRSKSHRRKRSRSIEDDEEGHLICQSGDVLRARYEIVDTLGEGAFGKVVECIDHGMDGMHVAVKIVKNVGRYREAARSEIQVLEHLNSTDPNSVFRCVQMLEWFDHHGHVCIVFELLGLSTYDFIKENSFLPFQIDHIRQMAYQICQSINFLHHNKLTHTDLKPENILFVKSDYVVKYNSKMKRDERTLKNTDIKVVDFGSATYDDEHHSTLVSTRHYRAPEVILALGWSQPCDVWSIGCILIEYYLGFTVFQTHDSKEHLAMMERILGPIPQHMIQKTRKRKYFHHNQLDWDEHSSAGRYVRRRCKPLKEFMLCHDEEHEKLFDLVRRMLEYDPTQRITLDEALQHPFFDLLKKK
Test: qHTS Assay for Inhibitors of CDC-like Kinase 4 (Kinase-Glo Assay) (AID 1770); further: nearly all actives have a fitted effect of over 65% in size
Settings: recombinant Clk4, Kinase-Glo ATP depletion luminescence; series mostly up to 66.7 µM
Results filed as inconclusive are left out. Active and inactive are the calls of the source. Calls come from the whole dose curve; as a rule, active = well fitted inhibition curve with a large enough effect; inconclusive = small, poorly fitted or top-dose-only effect; inactive = flat fitted curve, though single readings scatter.
Outcomes: 1 (yes) for active, 0 (no) for inactive

COc1ccccc1CNc1ccnc(-c2ccccc2Cl)n1 = 0 (no)
CCNc1ncc2nc(-c3ccc(F)cc3)c(=O)n(C)c2n1 = 0 (no)
COc1ccccc1CCn1c(=O)c(-c2cn(C)c3ccccc23)nc2cncnc21 = 0 (no)
FC(F)(F)c1ccccc1-c1nccc(-n2ccnc2)n1 = 1 (yes)
COc1ncc2nc(-c3ccc(Cl)cc3)c(=O)n(Cc3cccs3)c2n1 = 0 (no)
COc1ccccc1-c1nc(NCc2cccnc2)c2ccccc2n1 = 0 (no)
COc1ccccc1CNc1ccnc(-c2ccc(C(=O)N(C)C)cc2)n1 = 0 (no)
COc1cccc(-c2ccc3ncnc(N(C)C)c3c2)c1 = 1 (yes)
CS(=O)(=O)Nc1cccc(-c2cncnc2NCc2cccnc2)c1 = 0 (no)
COc1cccc(Cn2c(=O)c(C)nc3cnc(N(C)C)nc32)c1 = 0 (no)
Cc1cnc(CNc2cc(-c3ccccc3CN(C)C)ncn2)cn1 = 0 (no)
COc1ccccc1CCn1c(=O)c(-c2cccc(Cl)c2)nc2cncnc21 = 0 (no)
COc1ccc(Oc2ncc3ncc(=O)n(-c4ccc(OC)cc4)c3n2)cc1 = 1 (yes)
COc1ccc(-n2c(=O)c(-c3cccc(Cl)c3)nc3cncnc32)cc1 = 0 (no)
COc1ccc(CNc2ccnc(-c3ccc(C(=O)N(C)C)cc3)n2)c(OC)c1 = 0 (no)
N#Cc1ccccc1-c1ccc2ncnc(NC3CC3)c2c1 = 1 (yes)

---

Target: Cytochrome P450 3A4 (Homo sapiens) (UniProt P08684)
Sequence (P08684 whole entry, looked up): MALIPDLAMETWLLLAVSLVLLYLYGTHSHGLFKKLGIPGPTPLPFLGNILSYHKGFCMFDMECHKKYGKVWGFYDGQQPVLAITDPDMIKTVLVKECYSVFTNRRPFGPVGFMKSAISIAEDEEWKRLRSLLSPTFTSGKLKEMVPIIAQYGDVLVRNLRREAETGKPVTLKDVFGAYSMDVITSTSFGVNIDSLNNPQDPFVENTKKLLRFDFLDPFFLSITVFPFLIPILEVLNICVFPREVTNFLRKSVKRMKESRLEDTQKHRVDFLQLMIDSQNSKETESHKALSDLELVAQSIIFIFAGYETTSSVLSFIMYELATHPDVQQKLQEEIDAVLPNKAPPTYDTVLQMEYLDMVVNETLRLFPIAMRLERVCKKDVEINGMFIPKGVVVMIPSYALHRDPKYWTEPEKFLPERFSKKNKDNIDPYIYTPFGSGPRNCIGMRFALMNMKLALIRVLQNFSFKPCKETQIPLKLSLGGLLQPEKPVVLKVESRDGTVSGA
Assay: qHTS Assay for Inhibitors and Substrates of Cytochrome P450 3A4 (AID 884); further: nearly all actives have a fitted effect of over 50% in size
Conditions: recombinant CYP3A4, Luciferin-PPXE luminescence; series mostly up to 57.1 µM
Results filed as inconclusive are left out. The source made the active and inactive calls. The call rests on the fitted dose curve; in most records, active means well fitted inhibition curve with a large enough effect; inconclusive means small, poorly fitted or top-dose-only effect; inactive means no such curve, though single readings can be large or run the other way.
Outcomes: label 1 for active, label 0 for inactive

O=C(c1cccc(F)c1)N1CCC2(CCN(Cc3nccs3)CC2)CC1 = label 0
Cc1ccccc1-c1cncnc1Nc1ccccc1 = label 1
FC(F)(F)c1ccccc1-c1ccc2ncnc(NCc3cccs3)c2c1 = label 1
COc1ccc2[nH]cc(CCNc3ccnc(-c4ccccc4C(F)(F)F)n3)c2c1 = label 1

---

Assay: qHTS Assay for Lipid Storage Modulators (AID 1519)
Details: Drosophila S3 cells, BODIPY lipid droplet/cell ratio, laser cytometry; measured here: lipid channel max response; cells loaded with oleic acid
Records with an inconclusive call do not appear.
MEASURE NAME: max response (%)

COCC(=O)N1CCC2(CC1)CN(c1ccc(-c3ccccc3)cc1)C2 = -3.13
O=C(c1ccco1)N1CCC2(CCN(Cc3ccncc3)CC2)CC1 = 20.5
Nc1ccc(C(=O)O)c(O)c1 (tested in a mixture with another compound) = 22.7

---

Assay: NFAT Signaling Pathway (AID 444);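 further: carbachol stimulus at about its EC50 of 1 µM final; on the % scale 0 is the no-effect control and ±100 the full control effect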
Settings: Jurkat NFAT-bla M1, carbachol, beta-lactamase ratio, 5 h; at 7.69 µM (top of the series) unless noted
Inconclusive results are not listed.
MEASURE NAME: activity change, negative = inhibition (%)

COc1ccccc1-c1cncnc1Nc1ccccc1 = -4.57
Cc1cnc(CNc2nc(-c3ccccc3C(F)(F)F)nc3ccccc23)cn1 = 12.8
COc1ccccc1-c1nc(N(C)C)c2ccccc2n1 = -18.6
COc1ncc2nc(-c3ccc(Cl)cc3)c(=O)n(CCC#N)c2n1 = 3.96
CC(=O)N1CCC2(CC1)CCN(c1ccncc1)CC2 = -17.4
CN(C)Cc1ccccc1-c1nccc(NC2CC2)n1 = 1.25
COc1ccc(-n2c(=O)c(-c3ccccc3)nc3cnc(N4CCOCC4)nc32)cc1 = 6.27
CCNc1ncc2nc(CCc3ccccc3)c(=O)n(C[C@H]3CCCO3)c2n1 = -3.48
Cc1cnc(CNc2ncnc3ccc(-c4ccc5c(c4)OCO5)cc23)cn1 = 14.2
N#CCCn1c(=O)cnc2cnc(Oc3cccc(Cl)c3)nc21 = -14
CCNc1ncc2nc(-c3cc(F)cc(F)c3)c(=O)n(C3CC3)c2n1 = 23.3
CN(C)c1ncc2nc(-c3cc(F)cc(F)c3)c(=O)n(-c3ccccc3)c2n1 = 9.84
O=C(c1csnn1)N1CCC2(CCCN(c3ncccn3)C2)CC1 = 2.44
CNc1cc(-c2ccccc2C)ncn1 = 2.04
CS(=O)(=O)Nc1cccc(-c2cc(NCc3cccs3)ncn2)c1 = -3.98
COc1ccc(Oc2ncc3nc(-c4cccc(C#N)c4)c(=O)n(C)c3n2)cc1 = -9.84
CCNc1ncc2nc(-c3ccc(OC)cc3)c(=O)n(-c3ccc(OC)cc3)c2n1 = -5.13
CC(=O)NCCNc1nc(-c2ccc(N(C)C)cc2)nc2ccccc12 = -28.2
Cn1c(=O)c(CCc2ccccc2)nc2cncnc21 = -3.66
COc1cccc(Cn2c(=O)cnc3cnc(Nc4ccccc4)nc32)c1 = 17.1
COc1ccc(NC(=O)N2CC[C@@]3(CCCN(C(=O)c4c(C)noc4C)C3)C2)cc1 = -10.6
COc1ccc2[nH]cc(CCNc3cc(-c4c(C)noc4C)ncn3)c2c1 = 0.421
CCNc1ncc2nc(-c3ccc(OC)cc3)c(=O)n(Cc3cccs3)c2n1 = 2.94
